Biological target: T1, Bud14, P27637
T1 sequence (P27637 247-328, looked up): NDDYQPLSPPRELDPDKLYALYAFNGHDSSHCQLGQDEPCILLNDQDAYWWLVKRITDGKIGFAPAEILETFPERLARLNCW
Test: SPOT array
Details: median of control spots 956
observable: SPOT intensity

binder: LKRITSPPLPPRADS
SPOT intensity: 3
//
binder: NQARKPFLLPATELS
SPOT intensity: 19
//
binder: NMLSRPRLAKLPSIR
SPOT intensity: 33
//
binder: FSRRQSMDIPSKNRN
SPOT intensity: 6
//
binder: NRPAIRIPSLKKPAL
SPOT intensity: 13
//
binder: RRSKSLPITPKSIFN
SPOT intensity: 10
//
binder: GRSRLFPHSPLGRSS
SPOT intensity: 25
//
binder: VQKRKLPLPGSIASA
SPOT intensity: 0

Here's the next entry for you.
## Input Report measured SPOT intensity; entry is LYEAMPPTLPHRDWK
## Output 0
